molecular target: Human complement C1s enzyme (Homo sapiens (Human), UniProt P09871); assay: Human C1s enzyme assay; format: biochemical; conditions: Human C1s enzyme assay of Example 3; read-out: IC50 (Stars)
Sequence (P09871 438-688 limits assumed): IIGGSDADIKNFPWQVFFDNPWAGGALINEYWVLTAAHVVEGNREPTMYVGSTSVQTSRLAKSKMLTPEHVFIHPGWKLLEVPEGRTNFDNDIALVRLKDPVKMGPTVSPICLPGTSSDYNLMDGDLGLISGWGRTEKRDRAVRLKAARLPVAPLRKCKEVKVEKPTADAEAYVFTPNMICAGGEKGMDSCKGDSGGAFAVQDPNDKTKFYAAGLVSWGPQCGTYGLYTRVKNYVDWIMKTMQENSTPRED
Sequence (P09871 16-437 partner limits assumed): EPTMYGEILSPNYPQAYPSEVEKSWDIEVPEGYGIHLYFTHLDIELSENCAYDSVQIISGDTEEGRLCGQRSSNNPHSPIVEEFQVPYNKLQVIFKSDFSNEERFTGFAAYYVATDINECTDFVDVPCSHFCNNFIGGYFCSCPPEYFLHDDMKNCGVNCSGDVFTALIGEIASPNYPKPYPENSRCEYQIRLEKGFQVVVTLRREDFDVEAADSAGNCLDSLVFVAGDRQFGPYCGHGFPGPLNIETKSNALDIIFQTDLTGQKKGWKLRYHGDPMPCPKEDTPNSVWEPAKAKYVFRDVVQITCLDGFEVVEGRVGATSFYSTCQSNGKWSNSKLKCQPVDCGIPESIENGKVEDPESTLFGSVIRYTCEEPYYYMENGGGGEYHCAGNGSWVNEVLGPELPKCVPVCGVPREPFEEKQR
readout kind: IC50

Worked set:
C[C@@H](NC(=O)[C@@H]1C[C@@H](S(C)(=O)=O)CN1C(=O)CNC(=O)c1ccc2c(c1)-c1ccccc1C2(C)C)c1cc(C(=N)N)cs1
< 100 nM
CO[C@@H]1C[C@@H](C(=O)N[C@H](C)c2cc(C(=N)N)cs2)N(C(=O)CNC(=O)c2ccc3c(c2)-c2ccccc2C3(F)F)C1
< 100 nM
N=C(N)c1csc(CNC(=O)[C@@H]2CC3(CN2C(=O)CNC(=O)c2ccc(-c4ccccc4)cc2)OCCO3)c1
< 100 nM
C[C@@H](NC(=O)[C@@H]1C[C@@H](OC(F)F)CN1C(=O)CNC(=O)c1ccc(Oc2ccc(F)cc2)cc1)c1cc(-c2ncc[nH]2)cs1
< 100 nM
C[C@@H](NC(=O)[C@@H]1C[C@](F)(CF)CN1C(=O)CNC(=O)c1ccc(Oc2ccc(F)cc2)cc1)c1cc(C(=N)N)cs1
< 100 nM
C[C@@H](NC(=O)[C@@H]1C[C@](F)(CF)CN1C(=O)CNC(=O)c1ccc(Oc2ccc(C(F)(F)F)cc2)cc1)c1cc(C(=N)N)cs1
< 100 nM
COC[C@@]12C[C@@H]1N(C(=O)CNC(=O)c1ccc(Oc3ccc(F)cc3)cc1)[C@H](C(=O)N[C@H](C)c1cc(C(=N)N)cs1)C2
< 100 nM
CO[C@@H]1C[C@@H](C(=O)NCc2cc(-c3c[nH]c([N+](=O)[O-])n3)cs2)N(C(=O)CNC(=O)c2ccc(Oc3ccc(F)cc3)cc2)C1
> 1000 nM

Please respond with reported IC50 (system Human complement C1s enzyme (Homo sapiens (Human), UniProt P09871)) for Cc1cnc(-c2ccc(C(=O)NCC(=O)N3CC4(C[C@H]3C(=O)N[C@H](C)c3cc(C(=N)N)cs3)OCCO4)cc2)c(C)c1 . < 100 nM

Recall the reported IC50 of C[C@@H](NC(=O)[C@@H]1CC2(CN1C(=O)CNC(=O)c1cc3ccc1CCc1ccc(cc1)CC3)OCCO2)c1cc(C(=N)N)cs1 when tested on Human complement C1s enzyme (Homo sapiens (Human), UniProt P09871). < 100 nM

Using Human complement C1s enzyme (Homo sapiens (Human), UniProt P09871) as the test system, report measured IC50 of C[C@@H](NC(=O)[C@@H]1CC2(CN1C(=O)CNC(=O)c1ccc3c(c1)-c1ccccc1C3(F)F)OCCO2)c1cc(-c2nnc[nH]2)cs1 . 100 to 1000 nM

Tell me IC50 of C[C@@H](NC(=O)[C@@H]1C[C@H](C2CCCCC2)CN1C(=O)CNC(=O)c1ccc(Oc2ccc(F)cc2)cc1)c1cc(C(=N)N)cs1 when tested on Human complement C1s enzyme (Homo sapiens (Human), UniProt P09871). < 100 nM
